Cited source for all entries: ChEMBL document CHEMBL1134716

Listed below: pIC50 values for each entry.
# TARGET: Geranylgeranyl transferase type I (Homo sapiens, UniProt P49354+P53609)
# TEST_NAME: Inhibition of recombinant mammalian Geranylgeranyl transferase type I expressed in baculovirus
Conceptually, pIC50 converts a concentration in mol/L into minus its log10.

SMILES_STR	TARGET	PROPERTY_LABEL	MEASURED_VALUE
CC(C)=CCC/C(C)=C/CC/C(C)=C/CC/C(C)=C\COP(=O)(O)OP(=O)(O)O	Geranylgeranyl transferase type I (Homo sapiens, UniProt P49354+P53609)	pIC50	7.00

Exercise: Fill in pIC50 for record CC(C)=CCC/C(C)=C/CC/C(C)=C\CC/C(C)=C/COP(=O)(O)OP(=O)(O)O
Key: 6.47
